Catalogue of IC50 values
# target_or_system: E. coli MurF (Escherichia coli, UniProt P11880)
# Sequence (P11880 whole entry): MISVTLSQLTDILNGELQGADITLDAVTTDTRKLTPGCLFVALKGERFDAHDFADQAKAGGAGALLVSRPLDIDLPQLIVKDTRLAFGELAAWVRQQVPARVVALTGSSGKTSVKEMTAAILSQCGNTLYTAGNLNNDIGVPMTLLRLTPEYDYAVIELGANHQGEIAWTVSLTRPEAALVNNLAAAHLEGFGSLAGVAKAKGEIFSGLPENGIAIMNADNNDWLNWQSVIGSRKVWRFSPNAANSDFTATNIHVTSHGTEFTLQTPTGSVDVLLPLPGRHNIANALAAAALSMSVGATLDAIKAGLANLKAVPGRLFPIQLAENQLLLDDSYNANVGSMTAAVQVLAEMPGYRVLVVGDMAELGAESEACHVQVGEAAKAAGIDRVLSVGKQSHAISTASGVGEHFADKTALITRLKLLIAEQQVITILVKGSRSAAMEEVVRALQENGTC

Here are 3 compounds together with their reported answers.
{"compound": "Oc1cc(O)c2c(c1)O[C@H](c1ccc(O)c(O)c1)[C@H](O)C2 [Compound 21, (–)-epicatechin]", "IC50": "92 µM"}
{"compound": "O=c1c(O)c(-c2cc(O)c(O)c(O)c2)oc2cc(O)cc(O)c12", "IC50": "139 µM"}
{"compound": "Oc1cc(O)c2c(c1)O[C@H](c1ccc(O)c(O)c1)[C@@H](O)[C@H]2O", "IC50": "28 µM"}

We next turn to a different compound, shown below.
Item `C[C@@H]1O[C@@H](Oc2c(-c3ccc(O)c(O)c3)oc3cc(O)cc(O)c3c2=O)[C@H](O)[C@H](O)[C@H]1O` with E. coli MurF (Escherichia coli, UniProt P11880) - IC50? 143 µM

====

# target_or_system: E. coli MurF (Escherichia coli, UniProt P11880)
# protocol_description: MurF inhibition assay (Malachite green)
# Type: biochemical
# condition_description: 0.25 h; residual activity at 100 µM compound; mean ± SD of three independent experiments; read-out: RA (%) @ 100 µM MurF
Rule: remaining activity at 100 µM below 90% gives Yes. Equal to or above 90% gives No.

{"compound": "O=c1c(O)c(-c2ccccc2)oc2cc(O)cc(O)c12", "qualitative_label": "No"}

For `CC(C)=CCc1c(O)cc(O)c2c1O[C@H](c1ccc(O)cc1)CC2=O` , is the recorded remaining activity at 100 µM below the cut-off of 90%? Yes

For `COc1cc(O)c(CC=C(C)C)c2c1C(=O)C[C@@H](c1ccc(O)cc1)O2` , is the recorded remaining activity at 100 µM below the cut-off of 90%? Yes

For `COc1cc(O)c(CC=C(C)C)c(O)c1C(=O)/C=C/c1ccc(O)cc1` , is the recorded remaining activity at 100 µM below the cut-off of 90%? Yes

For `COc1ccc([C@@H]2CC(=O)c3c(O)cc(O)cc3O2)cc1O` , is the recorded remaining activity at 100 µM below the cut-off of 90%? Yes

For CC1OC(Oc2c(-c3cc(O)c(O)c(O)c3)oc3cc(O)cc(O)c3c2=O)C(O)C(O)C1O (centres unmarked) , is the recorded remaining activity at 100 µM below the cut-off of 90%? Yes

For `COc1cc(O)c2c(=O)c(O)c(-c3ccc(O)c(O)c3)oc2c1` , is the recorded remaining activity at 100 µM below the cut-off of 90%? Yes

For `O=C1C[C@@H](c2ccc(O)cc2)Oc2cc(O)cc(O)c21` , is the recorded remaining activity at 100 µM below the cut-off of 90%? Yes

For Oc1cc(O)c2c(c1)O[C@H](c1ccc(O)c(O)c1)[C@@H](O)C2 [Compound 22, (+)-catechin] , is the recorded remaining activity at 100 µM below the cut-off of 90%? No

For `O=c1cc(-c2ccccc2)oc2cc(O)cc(O)c12` , is the recorded remaining activity at 100 µM below the cut-off of 90%? No

For `COc1cc([C@@H]2[C@H]3CO[C@@]4(O)C(=O)[C@@H]2C=C([C@H]2Oc5cc(O)cc(O)c5C(=O)[C@@H]2O)[C@@H]34)ccc1O` , is the recorded remaining activity at 100 µM below the cut-off of 90%? No

For `COc1cc(OC)c2c(=O)cc(-c3ccc(OC)c(OC)c3)oc2c1` , is the recorded remaining activity at 100 µM below the cut-off of 90%? No
